Target: HLA-DPB1*0201 (Homo sapiens, UniProt P04440+P20036, A65V/A84D/A85E/K98E)
Assay: biochemical
parameter.measured: IC50 (µM)
Unit µM implied. Number only.

| compound.structure.string | IC50, µM |
| --- | --- |
| CC[C@H](C)[C@H](NC(=O)[C@H](CS)NC(=O)[C@@H]1CCCN1C(=O)[C@H](CCC(=O)O)NC(=O)[C@H](CO)NC(=O)CNC(=O)[C@@H](N)Cc1c[nH]cn1)C(=O)N[C@H](C(=O)N[C@@H](Cc1c[nH]cn1)C(=O)N[C@@H](CCCNC(=N)N)C(=O)NCC(=O)N[C@@H](CCCCN)C(=O)N1CCC[C@H]1C(=O)N[C@@H](Cc1ccccc1)C(=O)N[C@@H](CCC(N)=O)C(=O)N[C@@H](CC(C)C)C(=O)N[C@@H](CCC(=O)O)C(=O)N[C@@H](C)C(=O)N[C@H](C(=O)O)C(C)C)[C@@H](C)CC | 0.82 |

Query :: // query IC50 value for entry CC[C@H](C)[C@H](NC(=O)[C@H](C)NC(=O)[C@H](CC(=O)O)NC(=O)[C@H](CCCCN)NC(=O)[C@H](CC(C)C)NC(=O)[C@@H](NC(=O)[C@H](CCC(=O)O)NC(=O)[C@H](C)NC(=O)[C@H](Cc1ccccc1)NC(=O)[C@@H](NC(=O)[C@H](Cc1c[nH]cn1)NC(=O)[C@@H](NC(=O)[C@H](CCC(N)=O)NC(=O)[C@H](CC(C)C)NC(=O)[C@H](Cc1ccccc1)NC(=O)[C@@H](N)C(C)C)[C@@H](C)O)[C@@H](C)CC)C(C)C)C(=O)N[C@@H](CCCCN)C(=O)N[C@@H](CC(=O)O)C(=O)N[C@@H](CC(C)C)C(=O)O
Result :: 0.032

Query :: Now consider CC[C@H](C)[C@H](NC(=O)[C@H](CC(=O)O)NC(=O)[C@@H](N)CCCCN)C(=O)N[C@@H](CC(C)C)C(=O)N[C@@H](CCC(=O)O)C(=O)N[C@@H](CC(=O)O)C(=O)N[C@@H](CCC(=O)O)C(=O)N[C@@H](CCCNC(=N)N)C(=O)N[C@@H](C)C(=O)N[C@@H](C)C(=O)N[C@H](C(=O)N[C@@H](CC(=O)O)C(=O)N[C@H](C(=O)N[C@@H](Cc1ccc(O)cc1)C(=O)N[C@@H](CS)C(=O)O)[C@@H](C)O)C(C)C .
Result :: 10.5

Query :: Now consider CC[C@H](C)[C@H](NC(=O)[C@H](C)NC(=O)[C@H](CS)NC(=O)[C@H](C)NC(=O)[C@H](CC(C)C)NC(=O)[C@@H](NC(=O)CNC(=O)[C@H](CC(=O)O)NC(=O)[C@H](CC(=O)O)NC(=O)CNC(=O)[C@@H](N)CCSC)C(C)C)C(=O)N[C@@H](C)C(=O)N[C@H](C(=O)N[C@@H](Cc1c[nH]cn1)C(=O)N[C@@H](C)C(=O)N[C@@H](CCCCN)C(=O)N[C@H](C(=O)N[C@@H](CCCNC(=N)N)C(=O)N[C@@H](CC(=O)O)C(=O)O)[C@@H](C)CC)[C@@H](C)O .
Result :: 8.79

Query :: Now consider CC[C@H](C)[C@H](NC(=O)[C@H](CO)NC(=O)[C@H](CCC(=O)O)NC(=O)[C@H](C)NC(=O)[C@H](CCC(=O)O)NC(=O)[C@H](CCSC)NC(=O)[C@H](CCC(N)=O)NC(=O)[C@H](CCCCN)NC(=O)[C@@H](NC(=O)[C@H](CC(=O)O)NC(=O)[C@H](CCC(=O)O)NC(=O)[C@H](CCSC)NC(=O)[C@H](C)NC(=O)[C@H](CCC(N)=O)NC(=O)[C@H](CC(=O)O)NC(=O)[C@H](CCC(=O)O)NC(=O)[C@@H](N)[C@@H](C)O)[C@@H](C)CC)C(=O)N[C@@H](CO)C(=O)O .
Result :: 4.77

---

Molecular target: HLA-DPB1*0201 (Homo sapiens, UniProt P04440+P20036, A65V/A84D/A85E/K98E)
Experiment: biochemical
Assay type: binding
pIC50: −log10 of the molar value. Where no end group is shown, it is not given here.
Label class 1 when pIC50 is at or above 7; anything below gets class 0.

Query :: Decide: is the reported value of pIC50 for SDVGEFRAVTELG equal to or greater than 7?
Result :: class 0

Query :: Now consider CDGERPTLAFLQDVM .
Result :: class 0

Query :: Now consider INEPTAAAIAYGLDR .
Result :: class 0

Query :: Now consider RELWWVFYAAD .
Result :: class 0

Query :: Now consider FFLLTRILTIPQSLD .
Result :: class 1

Query :: Now consider EEVDMTPADALDDFD .
Result :: class 0

---

Biological target: HLA-DPB1*0402 (Homo sapiens, UniProt P04440+P20036, A65V/A84D/A85E/L207M)
Sequence (P04440 30-258 A65V/A84D/A85E): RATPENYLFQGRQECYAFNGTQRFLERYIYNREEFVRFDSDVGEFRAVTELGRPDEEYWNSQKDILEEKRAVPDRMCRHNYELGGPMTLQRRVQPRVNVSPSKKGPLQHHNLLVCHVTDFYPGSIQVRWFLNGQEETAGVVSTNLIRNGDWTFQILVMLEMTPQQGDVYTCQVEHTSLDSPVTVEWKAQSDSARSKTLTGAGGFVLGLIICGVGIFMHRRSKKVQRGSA
Sequence (P20036 29-260): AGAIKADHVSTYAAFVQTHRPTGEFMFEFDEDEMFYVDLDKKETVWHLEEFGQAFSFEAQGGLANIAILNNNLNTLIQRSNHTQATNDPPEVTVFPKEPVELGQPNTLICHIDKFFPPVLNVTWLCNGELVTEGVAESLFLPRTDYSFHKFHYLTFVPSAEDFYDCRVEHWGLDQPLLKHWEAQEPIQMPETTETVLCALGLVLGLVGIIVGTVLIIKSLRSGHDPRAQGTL
Assay: biochemical
parameter.measured: IC50 (nM)
Unit nM implied. Number only.

| compound.structure.string | recorded.value |
| --- | --- |
| CC[C@H](C)[C@H](NC(=O)[C@H](C)NC(=O)[C@H](CC(=O)O)NC(=O)[C@H](CCCCN)NC(=O)[C@H](CC(C)C)NC(=O)[C@@H](NC(=O)[C@H](CCC(=O)O)NC(=O)[C@H](C)NC(=O)[C@H](Cc1ccccc1)NC(=O)[C@@H](NC(=O)[C@H](Cc1c[nH]cn1)NC(=O)[C@@H](NC(=O)[C@H](CCC(N)=O)NC(=O)[C@H](CC(C)C)NC(=O)[C@H](Cc1ccccc1)NC(=O)[C@@H](N)C(C)C)[C@@H](C)O)[C@@H](C)CC)C(C)C)C(=O)N[C@@H](CCCCN)C(=O)N[C@@H](CC(=O)O)C(=O)N[C@@H](CC(C)C)C(=O)O | 5.6 |
| CC[C@H](C)[C@H](NC(=O)[C@H](CO)NC(=O)[C@H](CCC(=O)O)NC(=O)[C@H](C)NC(=O)[C@H](CCC(=O)O)NC(=O)[C@H](CCSC)NC(=O)[C@H](CCC(N)=O)NC(=O)[C@H](CCCCN)NC(=O)[C@@H](NC(=O)[C@H](CC(=O)O)NC(=O)[C@H](CCC(=O)O)NC(=O)[C@H](CCSC)NC(=O)[C@H](C)NC(=O)[C@H](CCC(N)=O)NC(=O)[C@H](CC(=O)O)NC(=O)[C@H](CCC(=O)O)NC(=O)[C@@H](N)[C@@H](C)O)[C@@H](C)CC)C(=O)N[C@@H](CO)C(=O)O | 2470 |

Note: attention shifts to another entry.
Query :: // query IC50 value for entry CSCC[C@H](NC(=O)[C@H](CCSC)NC(=O)[C@@H](N)CCCNC(=N)N)C(=O)N[C@@H](CCC(=O)O)C(=O)N[C@@H](Cc1ccc(O)cc1)C(=O)NCC(=O)N[C@H](C(=O)N[C@H](C(=O)N[C@@H](CCSC)C(=O)N[C@H](C(=O)N[C@@H](CO)C(=O)N[C@@H](Cc1ccc(O)cc1)C(=O)N[C@@H](CCC(N)=O)C(=O)N1CCC[C@H]1C(=O)N[C@@H](CC(C)C)C(=O)O)C(C)C)[C@@H](C)O)[C@@H](C)O
Result :: 1310

---

Molecular target: HLA-DPB1*0402 (Homo sapiens, UniProt P04440+P20036, A65V/A84D/A85E/L207M)
Sequence (P04440 30-258 A65V/A84D/A85E): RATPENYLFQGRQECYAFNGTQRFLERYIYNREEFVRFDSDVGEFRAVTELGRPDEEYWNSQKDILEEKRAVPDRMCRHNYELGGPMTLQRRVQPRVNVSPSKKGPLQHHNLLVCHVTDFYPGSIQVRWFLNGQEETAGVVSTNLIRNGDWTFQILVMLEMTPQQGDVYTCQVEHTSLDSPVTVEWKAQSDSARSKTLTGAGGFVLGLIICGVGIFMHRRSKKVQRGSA
Sequence (P20036 29-260): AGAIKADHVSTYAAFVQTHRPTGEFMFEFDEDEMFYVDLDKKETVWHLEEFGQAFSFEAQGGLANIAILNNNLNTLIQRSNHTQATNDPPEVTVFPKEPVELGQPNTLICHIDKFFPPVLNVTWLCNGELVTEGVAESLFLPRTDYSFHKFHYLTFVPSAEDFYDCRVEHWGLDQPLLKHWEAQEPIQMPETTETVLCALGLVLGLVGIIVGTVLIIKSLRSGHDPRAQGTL
Assay: biochemical
Type: binding
Listed here: items and their measured pIC50.
Please report pIC50 as the negative decimal logarithm of the molar concentration, giving only the number.

| compound.structure.string | pIC50 |
| --- | --- |
| CC(C)C[C@H](NC(=O)[C@@H](NC(=O)[C@H](Cc1c[nH]cn1)NC(=O)[C@H](CO)NC(=O)[C@H](Cc1ccccc1)NC(=O)[C@H](CO)NC(=O)CNC(=O)CNC(=O)[C@H](CC(C)C)NC(=O)[C@H](Cc1ccc(O)cc1)NC(=O)[C@H](CCCNC(=N)N)NC(=O)[C@H](Cc1ccc(O)cc1)NC(=O)[C@H](CC(C)C)NC(=O)[C@@H]1CCCN1)C(C)C)C(=O)O | 6.83 |
| CC[C@H](C)[C@H](NC(=O)[C@@H](N)CCCCN)C(=O)N[C@@H](Cc1ccccc1)C(=O)NCC(=O)N[C@@H](CO)C(=O)N[C@@H](CC(C)C)C(=O)N[C@@H](C)C(=O)N[C@@H](Cc1ccccc1)C(=O)N[C@@H](CC(C)C)C(=O)N1CCC[C@H]1C(=O)N[C@@H](CCC(=O)O)C(=O)N[C@@H](CO)C(=O)N[C@@H](Cc1ccccc1)C(=O)N[C@@H](CC(=O)O)C(=O)NCC(=O)N[C@@H](CC(=O)O)C(=O)N1CCC[C@H]1C(=O)N[C@@H](C)C(=O)O | 6.84 |

Note: attention shifts to another entry.
Query :: Tell me reported pIC50 for CC(C)C[C@H](NC(=O)[C@@H](NC(=O)[C@H](CC(N)=O)NC(=O)[C@H](Cc1ccccc1)NC(=O)[C@H](CC(C)C)NC(=O)[C@H](CO)NC(=O)[C@H](Cc1c[nH]c2ccccc12)NC(=O)[C@@H](NC(=O)[C@@H](NC(=O)[C@H](Cc1c[nH]cn1)NC(=O)[C@H](CC(=O)O)NC(=O)[C@@H]1CCCN1C(=O)[C@@H](N)C(C)C)C(C)C)C(C)C)[C@@H](C)O)C(=O)O , tested with HLA-DPB1*0402 (Homo sapiens, UniProt P04440+P20036, A65V/A84D/A85E/L207M).
Result :: 8.08
